test system: MHC-I expression by COLO 205 cells; test: cells; type: cell-based, human; settings: Homo sapiens, COLO 205, 48 h, MHC-I expression, COLO 205 cells, compounds at 35 μM, 48 hours, flow cytometry (W6/32); read-out: Induction Fold
recorded-endpoint: fold induction at 35 µM
Lab note: record just the number, no unit beside it.

CCCCCCc1ccc(O)cc1OCCCCCCCCCCC(=O)NC1CC1 [Example 302] : 1.4
CCCCn1cc(C(=O)c2ccc(OC)cc2)c2ccccc21 [Example 282] : 1.47
CCCC(C)n1cc(C(=O)c2cccc3ccccc23)c2ccccc21 (stereo not shown) [Example 187] : 1.9

// moving on: another record for fold induction at 35 µM
Exercise: Which measured fold induction at 35 µM value corresponds to CCCCCn1cc(C(=O)c2c(Cl)ccc3ccccc23)c2ccccc21 [Example 75] ?
Solution: 2.65
